// data source = ChEMBL document CHEMBL4689842

System: HEK-293T
test: Incucyte cell viability with HEK293T; also: filed as whole numbers so only -1 and 0 and 1 occur
Type: toxicity, cell-based
measurement_parameters: human, 12 h, 10 µM, compound concentration 10 uM, replicate number 1, timepoint 12 hours
// values below are reported Growth Rate
Number only, please.

The examples below pair each entry with its known result.
- compound: "CC(C)C[C@H](CO)Nc1nc(S[C@@H](C)c2ccccc2)nc2nc(N)sc12"
  Growth Rate: 0
- compound: "CC(C)(C)OC(=O)N1CCCC1CNC1CCC(c2cc(F)ccc2F)(S(=O)(=O)c2ccc(Cl)cc2)CC1 (stereo not given)"
  Growth Rate: 1
- compound: "CC(C)(Sc1ccc(CCN(CCCCC2CCCCC2)C(=O)NC2CCCCC2)cc1)C(=O)O"
  Growth Rate: 0
- compound: "Cc1c(NC(=O)c2cc(C(N)=O)nc3cc(F)ccc23)c(C(F)(F)F)nn1Cc1ccc(C#N)cc1"
  Growth Rate: 0
- compound: "COC1CCN(c2cccc(-c3cc(NC(C)=O)nc(-n4nc(C)cc4C)n3)n2)CC1"
  Growth Rate: 0

Q: Give Growth Rate for the following compound: CNC(=O)c1ccc(Nc2nc(OC3CCCC3)c3c(-c4ccc5nc(C)oc5c4)c[nH]c3n2)c(OC)c1
Ans: 0

Q: Give Growth Rate for the following compound: O=C1O[C@]2(CC[C@H](C(=O)Nc3ccn(-c4ccccc4F)n3)CC2)c2cnccc21
Ans: 0

Q: Give Growth Rate for the following compound: Cc1ccc(C(=O)Nc2cccc(C(F)(F)F)c2)cc1Nc1nc(-c2cccnc2)nc2c1cnn2C
Ans: 0

Q: Give Growth Rate for the following compound: Cl.O=c1c2cccn2c2ccccc2n1CCCN1CCC(c2ccc(Cl)cc2)CC1
Ans: 0

---

System: Fibroblast
test: Multiplex assay against human fibroblast
Type: toxicity, cell-based
measurement_parameters: 24 h, 10 µM, compound concentration 10 uM, replicate 1
// values below are reported Population Membrane Permeable-Phenotype (%)
Give a bare numeral; the unit % is implied.

- compound: "O=C1NC(=O)C(c2cnc3ccccn23)=C1c1cn2c3c(cc(F)cc13)CN(C(=O)N1CCCCC1)CC2 [LY-2090314]"
  unit_symbol: "%"
  measured_result: 41
- compound: "CCOc1cc(C(=O)N2CCC(N3CCN(C)CC3)CC2)ccc1Nc1ncc2c(n1)N(C1CCCC1)c1ccccc1C(=O)N2C"
  unit_symbol: "%"
  measured_result: 21
- compound: "CCc1cccc(CC)c1NC(=O)c1nn(C)c2c1CCc1cnc(Nc3ccc(C(=O)NC4CCN(C)CC4)cc3OC(F)(F)F)nc1-2"
  unit_symbol: "%"
  measured_result: 16
- compound: "CN1CCC(=C2c3ccccc3CC(=O)c3sccc32)CC1.O=C(O)/C=C/C(=O)O [KETOTIFEN FUMARATE]"
  unit_symbol: "%"
  measured_result: 17
- compound: "CCCS(=O)(=O)Nc1ccc(F)c(C(=O)c2c[nH]c3ncc(Cl)cc23)c1F [PLX-4720]"
  unit_symbol: "%"
  measured_result: 3

Q: Provide Fibroblast Population Membrane Permeable-Phenotype (%) reading for NC(=O)c1cccc(-c2cc(Nc3ccc(OC(F)(F)F)cc3)ncn2)c1 .
Ans: 5

Q: Provide Fibroblast Population Membrane Permeable-Phenotype (%) reading for CCCn1c(=O)c2[nH]c(-c3cnn(Cc4cccc(C(F)(F)F)c4)c3)nc2n(CC)c1=O [GS 6201] .
Ans: 29

Q: Provide Fibroblast Population Membrane Permeable-Phenotype (%) reading for O=C(Cc1ccc(-c2ccc(OCCN3CCOCC3)cc2)cn1)NCc1ccccc1 [TIRBANIBULIN] .
Ans: 17
